TGT: T1, TBD-21 (HC F108A)
T1 construct: Fab; also called HC F108A mutant
TEST NAME: competition ELISA, peptide vs Fab binding to captured biotin-TROP2
Where no end group is shown, it is not given here.
Please respond with reported IC50 for every item in the list.
Answers are plain numbers, in µM.

Sample records with IC50:
IDFCLIYNWPVCDT (cysteine pairing not given here; also: biotinylated, site not given here) [Peptide-6] : 7.94
EDFCKLYNWPICYQ (cysteine pairing not given here; also: biotinylated, site not given here) [Peptide-7] : 4.01
VDFCKLYNWPVCQT (cysteine pairing not given here; also: biotinylated, site not given here) [Peptide-5] : 7.16
IDFCLLYDWPICGR (cysteine pairing not given here; also: biotinylated (site not given here)) [Peptide-17] : 2.94

Next, consider the following binder.
# return recorded IC50 for input IDFCAIYQWPVCRS (cysteine pairing not given here; also: biotinylated (site not given here)) [Peptide-10]
2.9
